Hello, the source for this data is ChEMBL document CHEMBL1275329, in case you need it.

measured on: Alpha-2C adrenergic receptor (Homo sapiens)
assay: Agonist activity at human Alpha-2C adrenoceptor expressed in CHO cells assessed as induction of extracellular acidification by microphysiometry relative to (-)noradrenaline
Assay type: functional, cell-based
outcome measure: Intrinsic activity
Field format: numeric only.

>>> result("C[C@@H](Oc1ccccc1C1CC1)C1=NCCN1")
0.5

input: Find Intrinsic activity (Alpha-2C adrenergic receptor (Homo sapiens)) for the entry `C[C@H](Oc1ccccc1-c1ccccc1)C1=NCCN1`
output: 0.9

input: // next record `C[C@H](Oc1ccccc1-c1ccsc1)C1=NCCN1`
output: 0.9

input: // next record `Clc1cccc(Cl)c1NC1=NCCN1`
output: 0.6

input: // next record `C[C@@H](Oc1ccccc1-c1ccccc1)C1=NCCN1`
output: 0.7

input: // next record `C=CCc1ccccc1O[C@H](C)C1=NCCN1`
output: 0.5

input: // next record C=CCc1ccccc1OC(C)C1=NCCN1 (racemic)
output: 0.9

input: // next record `C[C@@H](Oc1ccccc1-c1cccc(O)c1)C1=NCCN1`
output: 1

input: // next record CC(Oc1ccccc1-c1cccc(O)c1)C1=NCCN1 (racemic)
output: 1.15

input: // next record `C[C@H](Oc1ccccc1-c1cccc([N+](=O)[O-])c1)C1=NCCN1`
output: 0.45

input: // next record `C=CCc1ccccc1O[C@@H](C)C1=NCCN1`
output: 0.9

input: // next record CC(Oc1ccccc1C1CC1)C1=NCCN1 (racemic)
output: 0.9
